Attribution: patent US10221158B2

- Test system: H1650 lung cancer cells
- protocol_text: Cell viability assay (MTT, IC50 determination)
- Assay type: cell-based
- test_parameters: Homo sapiens, NCI-H1650, 48 h drug treatment
- Experimental: Cell Viability Assays (IC50 Determination) Cell viability assays were performed according to Denizot, F. and R. Lang, Journal of Immunological Methods, 1986. 89(22): p. 271-277. H1650 lung cancer cells were plated at 150,000 cells per well in a 12 well plate. Twenty-four hours after plating, cells were treated as described with increasing concentrations of drug and control. […] Spectrophotometric analysis of each solution was performed using a 96 well plate reader at 600 nm in triplicate.
measurement_label: pIC50
The meaning of pIC50 here: minus log10 of the concentration in molar units.

For the molecule O=S(=O)(N[C@@H]1COC[C@H](N2c3ccccc3CCc3ccccc32)[C@H]1O)c1ccc(OC(F)(F)F)cc1 (racemic) [Example 1] , give its measured pIC50 value.
4.82
